- Test system: Huh7 cells expressing a subgenomic RNA replicon of Con1 (genotype 1b) sequence origin
Measurement name: IC50 (µM)
Field format: number, assumed µM, no unit text.

- CC(=O)O[C@@]12CO[C@@H]1C[C@H](O)[C@@]1(C)C(=O)[C@H](O)C3=C(C)[C@@H](O)C[C@@](O)([C@@H](OC(=O)c4ccccc4)[C@H]21)C3(C)C [10-Deacetylbaccatine Iii, reference compound]: 10.3

Q: Return reported IC50; argument: CC(C)(C)c1cc(O)c(C(C)(C)C)cc1O [BHQ, reference compound]
Ans: 23.3

Q: What do you get for C[C@]12CC[C@H]3[C@@H](CCC4=CC(=O)CC[C@@]43C)[C@@H]1CC[C@@H]2C(=O)CO [Desoxycorticosterone (e.g., acetate), deoxycorticosterone, reference compound] ?
Ans: 14.7

Q: Now try CC(=O)[O][Pt]([NH2])([Cl])([Cl])([NH]C1CCCCC1)[O]C(C)=O [Satraplatin, reference compound] .
Ans: 4.8
